These entries and their values trace back to ChEMBL document CHEMBL4118269.

test: Half life in human liver microsomes at 1 uM preincubated for 5 mins followed by NADPH addition measured up to 45 mins by LC-MS/MS analysis; format: ADME, microsome; conditions: 0.75 h
Mark no (0) for t1/2 values under 2 h, and yes (1) for everything at or above.

Use these answered entries as a reference point.
[
  {
    "smilesRecord": "O=C(N[C@@H](Cn1ccnc1)c1ccc(Cl)cc1Cl)c1ccc(-c2nnc(-c3cc(F)cc(OCC(F)(F)F)c3)o2)cc1",
    "labelValue": "no (0)"
  },
  {
    "smilesRecord": "O=C(N[C@@H](Cn1ccnc1)c1ccc(Cl)cc1Cl)c1ccc(-c2nnc(-c3ccc(C(F)(F)F)c(F)c3)o2)cc1",
    "labelValue": "yes (1)"
  },
  {
    "smilesRecord": "O=C(N[C@@H](Cn1ccnc1)c1ccc(Cl)cc1Cl)c1ccc(-c2nnc(-c3ccc(Cl)c(Cl)c3)o2)cc1",
    "labelValue": "no (0)"
  },
  {
    "smilesRecord": "O=C(N[C@@H](Cn1ccnc1)c1ccc(Cl)cc1Cl)c1ccc(-c2nnc(-c3cccc(Br)c3)o2)cc1",
    "labelValue": "yes (1)"
  },
  {
    "smilesRecord": "O=C(N[C@@H](Cn1ccnc1)c1ccc(Cl)cc1Cl)c1ccc(-c2nnc(-c3ccc(OCC(F)(F)F)cc3F)o2)cc1",
    "labelValue": "no (0)"
  },
  {
    "smilesRecord": "O=C(N[C@@H](Cn1ccnc1)c1ccc(Cl)cc1Cl)c1ccc(-c2nnc(-c3ccc(-c4ccccn4)cc3F)o2)cc1",
    "labelValue": "no (0)"
  },
  {
    "smilesRecord": "O=C(N[C@@H](Cn1ccnc1)c1ccc(Cl)cc1Cl)c1ccc(-c2nnc(-c3ccc(F)c(F)c3)o2)cc1",
    "labelValue": "yes (1)"
  },
  {
    "smilesRecord": "CS(=O)(=O)c1ccc(-c2nnc(-c3ccc(C(=O)N[C@@H](Cn4ccnc4)c4ccc(Cl)cc4Cl)cc3)o2)cc1Cl",
    "labelValue": "yes (1)"
  },
  {
    "smilesRecord": "O=C(N[C@@H](Cn1ccnc1)c1ccc(Cl)cc1Cl)c1ccc(-c2nnc(-c3ccccc3)o2)cc1",
    "labelValue": "yes (1)"
  },
  {
    "smilesRecord": "O=C(N[C@@H](Cn1ccnc1)c1ccc(Cl)cc1Cl)c1ccc(-c2nnc(-c3cccc(-c4ccccn4)c3)o2)cc1",
    "labelValue": "no (0)"
  }
]

Q. Identify whether the reported t1/2 of the following molecule is 2 h or greater: `O=C(N[C@@H](Cn1ccnc1)c1ccc(Cl)cc1Cl)c1ccc(-c2nnc(-c3cc(F)cc(-c4ncncc4F)c3)o2)cc1`
A. no (0)

Q. Would you say `O=C(N[C@@H](Cn1ccnc1)c1ccc(Cl)cc1Cl)c1ccc(-c2nnc(-c3ccc(-c4ccccn4)cc3)o2)cc1` shows t1/2 at minimum 2 h?
A. no (0)

Q. Is t1/2 at least 2 h? Consider `O=C(N[C@@H](Cn1ccnc1)c1ccc(Cl)cc1Cl)c1ccc(-c2nnc(-c3cc(F)cc(-c4ccccn4)c3)o2)cc1`
A. no (0)

----------
experiment: Lipophilicity, log P of the compound; type: physicochemical; conditions: octanol/water
parameterMeasured: logP
Numbers only.

Example compounds with recorded logP:
[
  {
    "smilesRecord": "O=C(N[C@@H](Cn1ccnc1)c1ccc(Cl)cc1Cl)c1ccc(-c2nnc(-c3ccc(Cl)c(Cl)c3)o2)cc1",
    "logP": 5.68
  },
  {
    "smilesRecord": "CS(=O)(=O)c1ccc(-c2nnc(-c3ccc(C(=O)N[C@@H](Cn4ccnc4)c4ccc(Cl)cc4Cl)cc3)o2)cc1Cl",
    "logP": 3.83
  },
  {
    "smilesRecord": "O=C(N[C@@H](Cn1ccnc1)c1ccc(Cl)cc1Cl)c1ccc(-c2nnc(-c3cccc(N4CCOCC4)c3)o2)cc1",
    "logP": 4.45
  }
]

Now consider the entry below.
compound `O=C(N[C@@H](Cn1ccnc1)c1ccc(Cl)cc1Cl)c1ccc(-c2nnc(-c3cc(F)cc(-c4ccccn4)c3)o2)cc1` , logP observed: 5.49
